Let's look at some compounds and their measured pKi.
molecular target: ACE-2 (Homo sapiens, UniProt Q9BYF1); construct: a stop codon inserted after the serine immediately preceding the transmembrane domain; made in house; host or cells: CHO K1 cells (transient transfection, purified from conditioned medium); assay: ACE-2 Competitive Substrate Assay (ACS Assay); type: biochemical; settings: Table 3, very good ACE-2 inhibiting compounds; species not given; read-out: ACE-2 Activity, Ki
Sequence (Q9BYF1 18-740 limits assumed): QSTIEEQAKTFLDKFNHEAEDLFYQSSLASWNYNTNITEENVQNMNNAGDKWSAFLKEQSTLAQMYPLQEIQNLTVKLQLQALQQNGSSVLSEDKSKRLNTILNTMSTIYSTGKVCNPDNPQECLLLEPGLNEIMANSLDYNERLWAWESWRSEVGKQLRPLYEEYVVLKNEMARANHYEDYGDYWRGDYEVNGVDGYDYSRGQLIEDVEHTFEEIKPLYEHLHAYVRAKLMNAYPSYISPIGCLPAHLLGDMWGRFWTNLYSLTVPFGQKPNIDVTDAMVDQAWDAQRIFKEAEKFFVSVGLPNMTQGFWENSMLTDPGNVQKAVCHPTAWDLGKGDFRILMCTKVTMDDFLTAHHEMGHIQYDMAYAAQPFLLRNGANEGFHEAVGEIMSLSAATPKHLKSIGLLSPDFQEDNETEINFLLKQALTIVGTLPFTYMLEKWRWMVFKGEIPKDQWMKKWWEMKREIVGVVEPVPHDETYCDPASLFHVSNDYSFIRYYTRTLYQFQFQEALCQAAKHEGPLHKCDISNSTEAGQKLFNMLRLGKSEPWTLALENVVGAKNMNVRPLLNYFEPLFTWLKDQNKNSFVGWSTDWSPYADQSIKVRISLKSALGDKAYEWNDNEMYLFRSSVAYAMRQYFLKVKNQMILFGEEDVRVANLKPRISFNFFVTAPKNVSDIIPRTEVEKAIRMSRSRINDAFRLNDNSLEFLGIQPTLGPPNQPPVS
pKi: −log10 of the molar value.

# example entries with known answers
>>> result("CC(C)C[C@H](N[C@@H](CC(=O)Nc1nc2c(Cl)cccc2s1)C(=O)O)C(=O)O")
"> 7.30"
>>> result("COC(=O)[C@H](Cc1cncn1Cc1cc(Cl)cc(Cl)c1)N[C@@H](CC(C)C)C(=O)OC")
"> 7.30"
>>> result("CC(C)CC(N[C@@H](Cc1cncn1Cc1ccc2c(c1)OCO2)C(=O)O)C(=O)O (single isomer, unassigned)")
"> 7.30"
>>> result("CC(C)CC(N[C@@H](Cc1cncn1Cc1cccc(F)c1F)C(=O)O)C(=O)O (single isomer, unassigned)")
"7.00 to 7.30"

Any idea what its pKi is? The compound is "CC(C)C[C@H](N[C@@H](Cc1ccc(-c2cnc3ccccc3c2)cc1)C(=O)O)C(=O)O"
> 7.30

Now consider "CC(C)C[C@H](N[C@@H](Cc1cncn1Cc1cc(F)cc(F)c1)C(=O)O)C(=O)O" and answer again.
> 7.30

Now consider "CC(C)C[C@H](N[C@@H](Cc1ccc(Cc2ccccc2)cc1)C(=O)O)C(=O)O" and answer again.
7.00 to 7.30

Now consider "CC(C)C[C@H](N[C@@H](Cc1ccc(-c2ccsc2)cc1)C(=O)O)C(=O)O" and answer again.
7.00 to 7.30

* * *

biological target: ACE-2 (Homo sapiens, UniProt Q9BYF1); construct: a stop codon inserted after the serine immediately preceding the transmembrane domain; made in house; host or cells: CHO K1 cells (transient transfection, purified from conditioned medium); experiment: ACE-2 Competitive Substrate Assay (ACS Assay); type: biochemical; details: Ki class; compounds tested in 5% DMSO, 12 compound concentrations, Ki=Kiapp/(1+[S]/Km); read-out: Human ACE-2 Activity
Let's look at some compounds and their measured Ki.

# example entries with known answers
>>> result("CC(C)C[C@H](N[C@@H](Cc1ccc(-c2ccccc2)o1)C(=O)O)C(=O)O")
"100 to 500 nM"
>>> result("CC(C)C[C@H](N[C@@H](Cc1ccc(OCc2cc(Cl)cc(Cl)c2)cc1)C(=O)O)C(=O)O")
"< 100 nM"
>>> result("CC(C)C[C@H](N[C@@H](CC(=O)Nc1nc(-c2ccccc2)cs1)C(=O)O)C(=O)O")
"> 500 nM"
>>> result("C=CCOc1cccc(C[C@H](N[C@@H](CC(C)C)C(=O)O)C(=O)O)c1")
"100 to 500 nM"

// below: Ki requested for another compound
Form field: Ki recorded for CC(C)CC(N[C@@H](Cc1cn(Cc2cccc(F)c2F)cn1)C(=O)O)C(=O)O (some centres unmarked) with ACE-2 (Homo sapiens, UniProt Q9BYF1) (enter value)
> 500 nM

* * *

target: ACE-2 (Homo sapiens, UniProt Q9BYF1); construct: a stop codon inserted after the serine immediately preceding the transmembrane domain; made in house; host or cells: CHO K1 cells (transient transfection, purified from conditioned medium); test: ACE-2 Competitive Substrate Assay (ACS Assay); type: biochemical; details: Ki class; compounds tested in 5% DMSO, 12 compound concentrations, Ki=Kiapp/(1+[S]/Km); read-out: Human ACE-2 Activity
OBSERVATION_TYPE: Ki

# example entries with known answers
>>> result("C=CCOc1ccc(C[C@H](N[C@@H](CC(C)C)C(=O)O)C(=O)O)cc1")
"< 100 nM"
>>> result("Cc1c(Cn2cncc2C[C@H](NC(CC(C)C)C(=O)O)C(=O)O)cccc1-c1ccccc1 (single isomer, unassigned) [IR]")
"> 500 nM"

Any idea what its Ki is? The compound is "CC(C)C[C@H](N[C@@H](Cc1csc(-c2cccc(C(F)(F)F)c2)n1)C(=O)O)C(=O)O"
> 500 nM

Now consider "CCCCOC(=O)[C@H](Cc1cncn1Cc1cc(Cl)cc(Cl)c1)N[C@@H](CC(C)C)C(=O)O" and answer again.
< 100 nM

Now consider "COc1cc(OC)cc(-c2cccc(C[C@H](N[C@@H](CC(C)C)C(=O)O)C(=O)O)c2)c1" and answer again.
> 500 nM

Now consider "COC(=O)[C@H](Cc1cncn1Cc1cc(Cl)cc(Cl)c1)N[C@H](CC(C)C)C(=O)O" and answer again.
100 to 500 nM

Now consider Cc1c(Cn2cncc2C[C@H](NC(CC(C)C)C(=O)O)C(=O)O)cccc1-c1ccccc1 (single isomer, unassigned) [IQ] and answer again.
100 to 500 nM

Now consider "CC(C)C[C@H](N[C@@H](Cc1ccc(-c2cc(Cl)cc(Cl)c2)cc1)C(=O)O)C(=O)O" and answer again.
< 100 nM
